# assaySystem: ATR (Homo sapiens, UniProt Q13535)
# Construct: endogenous in cells
# Sequence (Q13535 whole entry): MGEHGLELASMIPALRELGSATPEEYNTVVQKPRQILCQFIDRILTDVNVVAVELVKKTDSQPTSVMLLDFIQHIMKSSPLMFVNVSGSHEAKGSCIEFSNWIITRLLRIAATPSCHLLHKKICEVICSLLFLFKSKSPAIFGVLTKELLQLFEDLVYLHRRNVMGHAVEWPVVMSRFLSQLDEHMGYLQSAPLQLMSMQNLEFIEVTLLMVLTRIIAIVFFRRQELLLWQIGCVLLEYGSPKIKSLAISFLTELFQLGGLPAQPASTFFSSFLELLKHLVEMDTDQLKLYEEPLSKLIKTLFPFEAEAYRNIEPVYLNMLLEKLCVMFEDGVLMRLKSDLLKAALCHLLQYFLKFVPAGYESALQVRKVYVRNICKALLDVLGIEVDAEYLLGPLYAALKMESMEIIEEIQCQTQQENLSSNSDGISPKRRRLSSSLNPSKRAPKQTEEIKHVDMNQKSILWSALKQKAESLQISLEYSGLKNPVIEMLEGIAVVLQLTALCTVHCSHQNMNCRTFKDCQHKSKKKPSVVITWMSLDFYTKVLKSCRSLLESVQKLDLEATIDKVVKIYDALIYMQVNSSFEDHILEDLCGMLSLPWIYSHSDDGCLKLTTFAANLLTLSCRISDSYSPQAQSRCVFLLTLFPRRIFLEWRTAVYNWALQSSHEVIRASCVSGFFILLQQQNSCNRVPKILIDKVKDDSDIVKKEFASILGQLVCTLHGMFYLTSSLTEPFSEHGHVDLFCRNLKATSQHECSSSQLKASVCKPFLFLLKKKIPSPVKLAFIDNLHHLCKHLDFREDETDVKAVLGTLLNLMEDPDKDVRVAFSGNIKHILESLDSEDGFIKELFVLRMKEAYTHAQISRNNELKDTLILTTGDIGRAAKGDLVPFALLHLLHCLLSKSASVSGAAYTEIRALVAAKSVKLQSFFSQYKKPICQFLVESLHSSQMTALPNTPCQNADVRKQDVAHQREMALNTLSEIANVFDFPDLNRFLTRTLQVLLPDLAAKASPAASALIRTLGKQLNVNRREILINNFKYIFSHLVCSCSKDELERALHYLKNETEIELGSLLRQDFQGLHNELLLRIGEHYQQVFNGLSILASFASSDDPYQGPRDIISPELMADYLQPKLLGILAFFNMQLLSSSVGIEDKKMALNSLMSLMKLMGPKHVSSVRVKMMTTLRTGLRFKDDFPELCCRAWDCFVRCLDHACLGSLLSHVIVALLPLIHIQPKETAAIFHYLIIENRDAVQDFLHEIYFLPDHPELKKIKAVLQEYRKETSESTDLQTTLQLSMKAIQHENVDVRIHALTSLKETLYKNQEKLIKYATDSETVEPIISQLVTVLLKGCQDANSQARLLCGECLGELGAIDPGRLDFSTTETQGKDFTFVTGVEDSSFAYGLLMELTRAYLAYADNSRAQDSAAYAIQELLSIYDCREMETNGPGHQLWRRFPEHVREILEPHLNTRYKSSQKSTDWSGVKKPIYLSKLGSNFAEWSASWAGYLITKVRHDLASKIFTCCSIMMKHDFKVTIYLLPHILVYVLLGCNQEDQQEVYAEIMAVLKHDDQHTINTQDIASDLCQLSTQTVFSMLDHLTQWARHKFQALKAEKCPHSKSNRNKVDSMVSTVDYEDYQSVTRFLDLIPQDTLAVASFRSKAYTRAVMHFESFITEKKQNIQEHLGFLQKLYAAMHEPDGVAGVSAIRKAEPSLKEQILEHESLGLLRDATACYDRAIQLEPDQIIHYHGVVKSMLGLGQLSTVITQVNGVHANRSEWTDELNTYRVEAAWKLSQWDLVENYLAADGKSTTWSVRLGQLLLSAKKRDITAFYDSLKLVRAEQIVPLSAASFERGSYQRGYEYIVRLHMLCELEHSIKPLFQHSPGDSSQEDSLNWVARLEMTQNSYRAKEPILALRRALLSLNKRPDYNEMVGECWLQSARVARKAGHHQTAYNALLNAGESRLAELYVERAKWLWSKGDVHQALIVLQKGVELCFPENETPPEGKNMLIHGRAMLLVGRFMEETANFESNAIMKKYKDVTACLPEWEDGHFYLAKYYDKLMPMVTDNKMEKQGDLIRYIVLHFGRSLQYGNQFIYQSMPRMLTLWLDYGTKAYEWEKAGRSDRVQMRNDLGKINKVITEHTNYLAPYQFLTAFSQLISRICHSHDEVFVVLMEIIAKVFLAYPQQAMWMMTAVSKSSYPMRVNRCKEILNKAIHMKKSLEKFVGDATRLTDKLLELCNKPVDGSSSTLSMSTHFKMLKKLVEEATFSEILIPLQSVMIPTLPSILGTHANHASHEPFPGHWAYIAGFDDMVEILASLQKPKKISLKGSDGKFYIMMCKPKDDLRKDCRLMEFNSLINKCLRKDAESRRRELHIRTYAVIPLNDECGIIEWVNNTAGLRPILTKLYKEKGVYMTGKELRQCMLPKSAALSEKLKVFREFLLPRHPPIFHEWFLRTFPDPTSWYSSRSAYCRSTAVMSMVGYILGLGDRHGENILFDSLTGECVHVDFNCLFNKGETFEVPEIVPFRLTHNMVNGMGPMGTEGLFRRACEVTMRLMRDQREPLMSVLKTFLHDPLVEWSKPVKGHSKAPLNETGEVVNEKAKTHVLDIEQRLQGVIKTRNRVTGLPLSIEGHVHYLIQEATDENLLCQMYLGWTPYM
# Sequence (Q8WXE1 whole entry partner): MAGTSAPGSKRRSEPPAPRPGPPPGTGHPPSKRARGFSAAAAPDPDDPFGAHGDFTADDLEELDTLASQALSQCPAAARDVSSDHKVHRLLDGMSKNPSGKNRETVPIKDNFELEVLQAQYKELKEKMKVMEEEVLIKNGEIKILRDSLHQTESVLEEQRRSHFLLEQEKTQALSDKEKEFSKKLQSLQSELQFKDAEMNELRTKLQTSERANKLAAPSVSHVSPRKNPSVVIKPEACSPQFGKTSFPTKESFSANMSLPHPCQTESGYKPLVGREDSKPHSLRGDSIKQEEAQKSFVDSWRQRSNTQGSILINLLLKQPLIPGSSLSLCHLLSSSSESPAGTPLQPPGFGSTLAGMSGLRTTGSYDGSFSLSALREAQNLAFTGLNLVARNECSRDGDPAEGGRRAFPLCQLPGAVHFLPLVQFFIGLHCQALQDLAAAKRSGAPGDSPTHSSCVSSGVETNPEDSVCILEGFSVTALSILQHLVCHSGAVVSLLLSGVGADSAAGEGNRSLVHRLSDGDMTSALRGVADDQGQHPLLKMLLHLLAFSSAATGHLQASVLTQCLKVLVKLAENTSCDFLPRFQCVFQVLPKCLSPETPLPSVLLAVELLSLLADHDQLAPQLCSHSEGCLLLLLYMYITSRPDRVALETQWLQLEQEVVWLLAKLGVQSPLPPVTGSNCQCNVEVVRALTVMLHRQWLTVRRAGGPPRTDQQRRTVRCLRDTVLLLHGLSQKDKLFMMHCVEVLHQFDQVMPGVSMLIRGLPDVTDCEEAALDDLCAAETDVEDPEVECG
# protocolDescription: ATR cellular potency assay (pChk1 Ser345 in HT29 cells with 4NQO)
# testConditions: pChk1 (Ser 345); read-out: Assay b) ATR Cell IC50
pIC50: −log10 of the molar value.

- smilesRecord: "Cn1c(=O)n(C2CCOCC2)c2c3cc(-c4ccc(OCCC[N+](C)(C)[O-])nc4)ccc3ncc21"
  pIC50: 4.99

----------
# assaySystem: PI3Kα (Homo sapiens)
# protocolDescription: PI3K cellular potency assay (phospho-Akt T308 ELISA in BT474 cells)
# testConditions: 2 h, phospho-Akt (T308); read-out: Assay c) PI3Kα Cell IC50
pIC50: −log10 of the molar value.
metricName: pIC50

- compound: "Cn1c(=O)n(C2CCOCC2)c2c3cc(-c4ccc(OCCC[N+](C)(C)[O-])nc4)ccc3ncc21 [Example 1]"
  recordedValue: 4.75
